- assay.system: Peroxisome proliferator-activated receptor delta (Homo sapiens) (UniProt Q03181)
- Sequence (whole entry): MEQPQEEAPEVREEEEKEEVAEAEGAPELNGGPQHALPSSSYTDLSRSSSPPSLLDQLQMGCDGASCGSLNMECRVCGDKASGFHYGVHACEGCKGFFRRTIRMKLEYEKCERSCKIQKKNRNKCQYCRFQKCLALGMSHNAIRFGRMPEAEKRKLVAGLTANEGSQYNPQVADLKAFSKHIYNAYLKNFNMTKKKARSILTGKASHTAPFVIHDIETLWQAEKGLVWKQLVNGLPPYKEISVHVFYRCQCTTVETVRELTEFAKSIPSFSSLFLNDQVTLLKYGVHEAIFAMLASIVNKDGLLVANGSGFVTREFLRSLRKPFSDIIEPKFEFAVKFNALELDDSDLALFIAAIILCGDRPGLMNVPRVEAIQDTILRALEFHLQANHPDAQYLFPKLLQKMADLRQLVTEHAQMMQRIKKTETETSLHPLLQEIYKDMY
- assay.name: Agonist activity at GAL4-fused human PPARdelta expressed in African green monkey CV1 cells up to 30 uM after 24 hrs by luciferase reporter gene assay
- Assay type: cell-based
Calls of active or inactive are those of the source. No cut-off for these calls is given here.
reported.property: Activity

Study these solved cases before continuing.
{"columns": ["sample.smiles", "Activity"],
 "data": [
  ["CC#C[C@@H](CC(=O)O)c1ccc(OCc2ccc3nc(-c4ccc(C(C)C)cc4)nn3c2)cc1", "inactive"],
  ["CC#C[C@@H](CC(=O)O)c1ccc(OCc2ccc3nc(-c4ccc(OC(F)F)cc4)nn3c2)cc1", "inactive"],
  ["CC#C[C@@H](CC(=O)O)c1ccc(OCc2ccc3nc(-c4c(C)cc(OCCCS(C)(=O)=O)cc4C)nn3c2)cc1", "inactive"],
  ["CC#C[C@@H](CC(=O)O)c1ccc(OCc2ccc3nc(-c4c(C)cccc4C)nn3c2)cc1", "inactive"],
  ["CC#C[C@@H](CC(=O)O)c1ccc(OCc2ccc3nc(-c4ccc(OCCC(C)(C)O)cc4)nn3c2)cc1", "inactive"],
  ["CC#C[C@@H](CC(=O)O)c1ccc(OCc2ccc3nc(-c4ccc(C#N)cc4)nn3c2)cc1", "inactive"]
]}

Then this compound:
Q) Field request: Activity | item: CC#C[C@@H](CC(=O)O)c1ccc(OCc2ccc3nc(-c4ccc(OCCOC)cc4)nn3c2)cc1
A) inactive

====

- assay.name: AUC (0 to 24 hrs) in Sprague-Dawley rat at 1 mg/kg, iv
- Type: ADME, organism-based
- Parameters: dose 1 mg/kg, time < 24 hr, route intravenous
- cond: in vivo
reported.property: AUC(0-t) at 24 h

Q) So what's the measured AUC(0-t) at 24 h for this one? CC#C[C@@H](CC(=O)O)c1ccc(OCc2ccc3nc(-c4c(C)cccc4C)nn3c2)cc1
A) 12700 ng·h/mL

====

- assay.name: AUC (0 to 24 hrs) in Sprague-Dawley rat at 500 mg/kg, po
- Format: ADME, organism-based
- Design: dose 500 mg/kg, time < 24 hr, route oral
- cond: in vivo
reported.property: AUC(0-t) at 24 h (µg·h/mL)
The answer is to be given in µg·h/mL; state only the numeric part.

Q) Query: AUC(0-t) at 24 h; subject: CC#C[C@@H](CC(=O)O)c1ccc(OCc2ccc3nc(-c4c(C)cccc4C)nn3c2)cc1
A) 4790
